Could you please report measured IC50 for the items listed next?
target: hmGluR1 receptor (Homo sapiens, UniProt Q13255); construct: expressed in transfected cells; assay: IC50 determination: intracellular calcium mobilization (FLIPR) upon Quisqualate stimulation in CHO cells stably expressing hmGluR1; format: cell-based; details: against Quisqualate 1 μM (EC80), FLIPR calcium mobilization, read-out: IC50 Class
Sequence (Q13255 19-1194): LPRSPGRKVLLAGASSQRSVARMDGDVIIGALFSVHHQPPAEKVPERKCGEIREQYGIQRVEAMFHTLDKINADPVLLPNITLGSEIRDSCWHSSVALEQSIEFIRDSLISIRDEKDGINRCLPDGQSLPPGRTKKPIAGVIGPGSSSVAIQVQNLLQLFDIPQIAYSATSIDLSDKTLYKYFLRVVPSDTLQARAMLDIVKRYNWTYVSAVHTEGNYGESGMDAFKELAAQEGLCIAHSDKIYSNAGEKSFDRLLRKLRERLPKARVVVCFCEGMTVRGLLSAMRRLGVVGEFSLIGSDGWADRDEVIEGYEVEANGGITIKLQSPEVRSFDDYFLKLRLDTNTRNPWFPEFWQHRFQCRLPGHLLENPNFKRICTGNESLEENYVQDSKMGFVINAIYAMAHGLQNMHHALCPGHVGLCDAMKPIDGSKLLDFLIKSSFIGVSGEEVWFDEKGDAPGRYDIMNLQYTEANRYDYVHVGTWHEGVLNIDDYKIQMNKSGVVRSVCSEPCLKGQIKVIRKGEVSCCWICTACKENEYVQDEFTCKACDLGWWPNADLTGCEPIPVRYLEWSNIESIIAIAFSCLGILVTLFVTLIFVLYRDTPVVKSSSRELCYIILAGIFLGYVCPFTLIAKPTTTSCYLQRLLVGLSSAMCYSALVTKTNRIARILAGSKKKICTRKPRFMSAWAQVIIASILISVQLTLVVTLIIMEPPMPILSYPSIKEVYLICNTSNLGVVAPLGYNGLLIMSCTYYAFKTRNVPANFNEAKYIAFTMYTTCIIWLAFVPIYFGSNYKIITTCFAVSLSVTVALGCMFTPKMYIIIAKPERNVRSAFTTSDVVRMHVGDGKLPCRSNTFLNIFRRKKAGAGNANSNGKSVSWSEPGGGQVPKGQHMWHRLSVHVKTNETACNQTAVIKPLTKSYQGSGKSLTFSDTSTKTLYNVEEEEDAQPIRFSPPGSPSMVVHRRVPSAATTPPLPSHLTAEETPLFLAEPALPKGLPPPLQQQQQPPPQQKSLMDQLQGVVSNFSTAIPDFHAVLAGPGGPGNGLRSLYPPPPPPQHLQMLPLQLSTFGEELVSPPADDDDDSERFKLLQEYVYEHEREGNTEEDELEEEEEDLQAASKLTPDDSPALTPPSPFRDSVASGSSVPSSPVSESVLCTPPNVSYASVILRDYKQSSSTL

Check out these entries, answers already filled in.
| compound | IC50 |
| --- | --- |
| C#CCNc1nncc2sc3c(=O)n(-c4ccc(C)cc4)cnc3c12 [167J] | 0.05 to 0.15 µM |
| COc1ccnc2sc3c(=O)n(-c4ccc5c(c4)CCO5)cnc3c12 [25F] | 0.15 to 1 µM |
| O=c1c2sc3ncnc(NC4CCC4)c3c2ncn1-c1ccc(Cl)cc1 [95DD] | 0.15 to 1 µM |
| CCNc1ccnc2sc3c(=O)n(-c4ccc5c(c4)OCCO5)cnc3c12 [28BY] | < 0.05 µM |
| Cc1ccc(-n2cnc3c(sc4ncnc(NCC5CC5)c43)c2=O)cc1 [95DP] | 0.05 to 0.15 µM |

For each of the items listed, what is its IC50?
1. CCOC(=O)c1cc2c(nc1C(F)(F)F)sc1c(=O)n(-c3ccc(C)cc3)cnc12 [144C]
2. Cc1ccc(-n2cnc3c(sc4nccc(N5CC[C@H](O)C5)c43)c2=O)cc1 [28CU]
3. CNc1ccnc2sc3c(=O)n(-c4ccc5c(c4)CCO5)cnc3c12 [28BR]
4. CC(C)(C)Nc1ccnc2sc3c(=O)n(-c4ccc(Cl)cc4)cnc3c12 [28EP]

A:
> 1 µM
> 1 µM
< 0.05 µM
0.15 to 1 µM

---

molecular target: hmGluR1 receptor (Homo sapiens, UniProt Q13255); construct: expressed in transfected cells; experiment: IC50 determination: intracellular calcium mobilization (FLIPR) upon Quisqualate stimulation in CHO cells stably expressing hmGluR1; assay type: cell-based; conditions: against Quisqualate 1 μM (EC80), class symbols, read-out: mGIuR 1 IC50
Could you please report measured IC50 for the items listed next?

Check out these entries, answers already filled in.
| compound | assayed-target | result |
| --- | --- | --- |
| CCNc1ccnc2sc3c(=O)n(C4CCCCC4)cnc3c12 [28P] | hmGluR1 receptor (Homo sapiens, UniProt Q13255) | < 0.05 µM |
| CN(C)c1ccnc2sc3c(=O)n(C4CCC4)cnc3c12 [15J] | hmGluR1 receptor (Homo sapiens, UniProt Q13255) | 0.05 to 0.15 µM |
| Cc1ccc(-n2cnc3c(sc4nccc(N(C)C)c43)c2=O)nc1 | hmGluR1 receptor (Homo sapiens, UniProt Q13255) | < 0.05 µM |
| O=c1c2sc3nccc(N4CCCCC4)c3c2ncn1C1CCCCC1 [28L] | hmGluR1 receptor (Homo sapiens, UniProt Q13255) | > 1 µM |
| Cc1ccc(-n2cnc3c(sc4nc(N5CCN(C)CC5)cc(N(C)C)c43)c2=O)cc1 [59A] | hmGluR1 receptor (Homo sapiens, UniProt Q13255) | > 1 µM |
| COc1cc(-n2cnc3c(sc4nccc(N(C)C)c43)c2=O)ccc1Br | hmGluR1 receptor (Homo sapiens, UniProt Q13255) | 0.15 to 1 µM |

For each of the items listed, what is its IC50?
1. CN(C)c1ccnc2sc3c(=O)n(-c4ccc5[nH]ccc5c4)cnc3c12
2. CNc1ccnc2c1c1ncn(-c3ccc(C)cc3)c(=O)c1n2Cc1ccc(OC)cc1 [134I]

A:
1. < 0.05 µM
2. > 1 µM

For each of the items listed, what is its IC50?
1. COc1ccc(-n2cnc3c(sc4nccc(OC)c43)c2=O)cc1 [25B]
2. CNc1ccnc2sc3c(=O)n(-c4ccc5ncsc5c4)cnc3c12
3. CN(C)c1c(Br)cnc2sc3c(=O)n(C4CCCCC4)cnc3c12
4. CCc1ccnc2sc3c(=O)n(C4CCCCC4)cnc3c12 [29C]
5. CN(C)c1c(C#N)ncc2sc3c(=O)n(-c4ccc(Cl)cc4)cnc3c12
6. CN(C)c1ccnc2sc3c(=O)n(-c4ccccn4)cnc3c12
7. Cc1ccc(-n2cnc3c(sc4nccc(NCC#N)c43)c2=O)cc1 [28AA]

A:
0.15 to 1 µM
< 0.05 µM
0.15 to 1 µM
0.05 to 0.15 µM
0.05 to 0.15 µM
0.05 to 0.15 µM
< 0.05 µM
